MEASUREMENT TARGET: KRas G12D (Homo sapiens, UniProt P01116, G12D)
Sequence (P01116 1-169 isoform P01116-2 G12D): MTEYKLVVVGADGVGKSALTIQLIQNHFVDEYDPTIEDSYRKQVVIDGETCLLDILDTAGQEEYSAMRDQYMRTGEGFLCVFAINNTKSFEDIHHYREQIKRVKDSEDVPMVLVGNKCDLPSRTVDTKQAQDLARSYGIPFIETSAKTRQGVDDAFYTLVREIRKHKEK
ASSAY PROTOCOL: biochemical
REPORTED METRIC: IC50 (µM)
Write the value in µM as a bare number.

COMPOUND	IC50 (µM)
CCc1c(F)ccc2cc(O)cc(-c3ncc4c(NCCCc5cc[nH]n5)nc(OC[C@@]56CCCN5C[C@H](F)C6)nc4c3F)c12 [Example 135]	0.031

If you can, please state the reported IC50 value of Cc1cc2[nH]ncc2c(-c2ncc3c(N4CCCC5(CNC(=O)C5)C4)nc(OCC45CCCN4CCC5)nc3c2F)c1C (stereo not shown) [Example 26] .
0.845

If you can, please state the reported IC50 value of O=S1(=O)NCC2(CCCN(c3nc(OCC45CCCN4CCC5)nc4c(F)c(-c5cccc6cccc(F)c56)ncc34)C2)N1 (stereo not shown) [Example 252] .
0.011

If you can, please state the reported IC50 value of Fc1c(-c2cccc3cccc(F)c23)ncc2c(NCc3c[nH]c4ncccc34)nc(OCC34CCCN3CCC4)nc12 [Example 94] .
4.51

If you can, please state the reported IC50 value of O=C1NC2(CCN(c3nc(OCC45CCCN4CCC5)nc4c(F)c(-c5cccc6cccc(F)c56)ncc34)CC2)CO1 [Example 224] .
64.8

If you can, please state the reported IC50 value of CCc1c(F)ccc2cc(O)cc(-c3ncc4c(N5CCCC(C#N)CC5)nc(OC[C@@]56CCCN5C[C@H](F)C6)nc4c3F)c12 (stereo partly shown) [Example 173] .
0.006

If you can, please state the reported IC50 value of CCc1c(F)ccc2cc(O)cc(-c3ncc4c(N5CCC[C@](C)(O)C5)nc(OC[C@@H]5C[C@@H](OC(=O)NC)CN5C)nc4c3F)c12 [Example 9] .
0.456

###

MEASUREMENT TARGET: KRas G12D (Homo sapiens, UniProt P01116, G12D)
ASSAY PROTOCOL: biochemical
pIC50: −log10 of the molar value.
// label = t if pIC50 is not less than 5, otherwise f

MOLECULE	CLASSIFICATION
OCc1cc2n(n1)CCCN(c1nc(OCC34CCCN3CCC4)nc3c(F)c(-c4cccc5cccc(F)c45)ncc13)C2 [Example 261]	t
OCC1CCCN(c2nc(OCC34CCCN3CCC4)nc3c(F)c(-c4cccc5cccc(F)c45)ncc23)C1 (centres unmarked) [Example 113]	f
CCc1c(F)ccc2cc(O)cc(-c3ncc4c(N5CCCn6nc(C(=O)NC(C)C)cc6C5)nc(OC[C@@]56CCCN5C[C@H](F)C6)nc4c3F)c12 [Example 357]	t

Form field: pIC50 at least 5? Entry: CCc1c(F)ccc2cc(O)cc(-c3ncc4c(N5CCC[C@]6(C5)NC(=O)NC6=O)nc(OC[C@@]56CCCN5C[C@H](F)C6)nc4c3F)c12 [Example 307]
t

Form field: pIC50 at least 5? Entry: CC1(O)CCCCN(c2nc(OCC34CCCN3CCC4)nc3c(F)c(-c4cccc5cccc(F)c45)ncc23)C1 (centres unmarked) [Example 65]
f

Form field: pIC50 at least 5? Entry: Fc1c(-c2cccc3cccc(F)c23)ncc2c(N3CCCC4CCCC43)nc(OCC34CCCN3CCC4)nc12 (centres unmarked) [Example 32]
f

Form field: pIC50 at least 5? Entry: CCc1c(F)ccc2cc(O)cc(-c3ncc4c(N5CC[C@@H](C)[C@@H](O)C5)nc(OC[C@@]56CCCN5C[C@H](F)C6)nc4c3F)c12 [Example 189]
t

Form field: pIC50 at least 5? Entry: CCc1c(F)ccc2cc(O)cc(-c3ncc4c(N5CCCC(NS(N)(=O)=O)C5)nc(OC[C@@]56CCCN5C[C@H](F)C6)nc4c3F)c12 (some centres unmarked) [Example 352]
t

Form field: pIC50 at least 5? Entry: Fc1c(-c2cccc3cccc(F)c23)ncc2c(N3CCCCC3)nc(OCC34CCCN3CCC4)nc12 [Example 21]
f

Form field: pIC50 at least 5? Entry: Fc1c(-c2cccc3cccc(F)c23)ncc2c(NCc3cnn4cccnc34)nc(OCC34CCCN3CCC4)nc12 [Example 214]
f

Form field: pIC50 at least 5? Entry: CC1(C)CCCN(c2nc(OCC34CCCN3CCC4)nc3c(F)c(-c4cccc5cccc(F)c45)ncc23)C1 [Example 53]
f

###

MEASUREMENT TARGET: KRas G12D (Homo sapiens, UniProt P01116, G12D);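 note: TR-FRET displacement binding assay on KRas, read after a one-hour incubation at room temperature, IC50 fitted from percent-of-control values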
ASSAY PROTOCOL: biochemical
pIC50: −log10 of the molar value.
// label = MET if pIC50 is not less than 8, otherwise NOT MET

Answered cases to consult:
                                   compound  classification
0  CCc1c(F)ccc2cccc(-c3ncc4c(N5CCC[C@@](C)(O)C5)nc(OCC56CCCN5CCC6)nc4c3F)c12         NOT MET
1  OC[C@@H]1CCCN(c2nc(OCC34CCCN3CCC4)nc3c(F)c(-c4cccc5cccc(F)c45)ncc23)C1         NOT MET
2  CCc1c(F)ccc2cc(O)cc(-c3ncc4c(N5CCCCC(O)C5)nc(OC[C@@]56CCCN5C[C@H](F)C6)nc4c3F)c12 (stereo partly shown)             MET
3  CCc1c(F)ccc2cc(O)cc(-c3ncc4c(NCCN5CC(=O)NC5=O)nc(OC[C@@]56CCCN5C[C@H](F)C6)nc4c3F)c12         NOT MET
4  CCc1c(F)ccc2cc(O)cc(-c3ncc4c(N5CCCCCC(S(C)(=O)=O)C5)nc(OC[C@@]56CCCN5C[C@H](F)C6)nc4c3F)c12 (stereo partly shown)             MET

Form field: pIC50 at least 8? Entry: N#Cc1cccc2cccc(-c3ncc4c(N5CCCC(c6nc[nH]n6)C5)nc(OCC56CCCN5CCC6)nc4c3F)c12 (stereo not shown)
NOT MET

Form field: pIC50 at least 8? Entry: `CCc1c(F)ccc2cc(O)cc(-c3ncc4c(N5CCCn6nc(C(=O)N(C)C)c(F)c6C5)nc(OC[C@@]56CCCN5C[C@H](F)C6)nc4c3F)c12`
MET

Form field: pIC50 at least 8? Entry: OCC1COCCN(c2nc(OCC34CCCN3CCC4)nc3c(F)c(-c4cc(O)cc5ccc(F)c(F)c45)ncc23)C1 (stereo not shown)
NOT MET

Form field: pIC50 at least 8? Entry: `CCc1c(F)ccc2cc(O)cc(-c3ncc4c(Nc5ccc6cn[nH]c6c5)nc(OC[C@@]56CCCN5C[C@H](F)C6)nc4c3F)c12`
NOT MET

Form field: pIC50 at least 8? Entry: CN(C)CC1(COc2nc(N3CCCC(C)(O)C3)c3cnc(-c4cccc5cccc(F)c45)c(F)c3n2)CC1 (stereo not shown)
NOT MET

Form field: pIC50 at least 8? Entry: `CCc1c(F)ccc2cc(O)cc(-c3ncc4c(N5CCCCC5)nc(OC[C@@]56CCCN5C[C@H](O)C6)nc4c3F)c12`
MET

Form field: pIC50 at least 8? Entry: `CC(=O)Nc1cc2n(n1)CCCN(c1nc(OCC34CCCN3CCC4)nc3c(F)c(-c4cccc5cccc(F)c45)ncc13)C2`
NOT MET

Form field: pIC50 at least 8? Entry: O=C1NC(=O)C2(CCCN(c3nc(OCC45CCCN4CCC5)nc4c(F)c(-c5cccc6cccc(CO)c56)ncc34)C2)N1 (stereo not shown)
NOT MET

###

MEASUREMENT TARGET: KRas G12V (Homo sapiens, UniProt P01116, G12V)
Sequence (P01116 1-169 isoform P01116-2 G12V): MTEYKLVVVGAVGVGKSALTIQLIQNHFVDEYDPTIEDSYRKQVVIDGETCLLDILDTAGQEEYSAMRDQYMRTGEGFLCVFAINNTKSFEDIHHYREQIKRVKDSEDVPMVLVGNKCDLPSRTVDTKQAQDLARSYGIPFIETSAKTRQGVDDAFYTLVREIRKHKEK
ASSAY PROTOCOL: biochemical
REPORTED METRIC: pIC50
Remember, pIC50 is on a log scale: it is -log10 of the molar concentration.

Below, each entry is followed by its recorded pIC50 result.
>>> df
                                   molecule  reported_value
0  CC1CCCN(c2nc(OCC34CCCN3CCC4)nc3c(F)c(-c4cccc5cccc(F)c45)ncc23)C1 (stereo not shown)            4.92
1  CCc1c(F)ccc2cc(O)cc(-c3ncc4c(NCC5CCNC5=O)nc(OC[C@@]56CCCN5C[C@H](F)C6)nc4c3F)c12 (stereo partly shown)            7.62
2  O=C1CC(CNc2nc(OCC34CCCN3CCC4)nc3c(F)c(-c4cccc5cccc(Cl)c45)ncc23)CN1 (stereo not shown)            6.44

KRas G12V (Homo sapiens, UniProt P01116, G12V) / pIC50 / `Fc1c(-c2cccc3cccc(F)c23)ncc2c(N3CC(n4cncn4)C3)nc(OCC34CCCN3CCC4)nc12` : value?
5.36

KRas G12V (Homo sapiens, UniProt P01116, G12V) / pIC50 / Cc1cccc2cccc(-c3ncc4c(N5CCCC6(C5)NC(=O)NC6=O)nc(OCC56CCCN5CCC6)nc4c3F)c12 (stereo not shown) : value?
7.27

KRas G12V (Homo sapiens, UniProt P01116, G12V) / pIC50 / CCc1c(F)ccc2cc(O)cc(-c3ncc4c(N5CCOCC(OC)C5)nc(OC[C@@]56CCCN5C[C@H](F)C6)nc4c3F)c12 (stereo partly shown) : value?;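 note: KRas binding measured by TR-FRET displacement at room temperature, IC50 fitted from percent of control values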
8.10
